test: qHTS of pediatric cancer cell lines to identify multiple opportunities for drug repurposing: Confirmatory screen for LAN-5 cells (AID 1347113); details: LAN-5 neuroblastoma cell viability; series mostly up to 45.9 µM; note: nearly all actives have a fitted effect of over 65% in size
Inconclusive results are not listed. Active and inactive are the calls of the source. Calls come from the whole dose curve; as a rule, active = well fitted cell-killing curve with a large enough effect; inconclusive = small, poorly fitted or top-dose-only effect, or effect the other way; inactive = no such curve, though single readings can be large or run the other way.
// classify into Yes = active, No = inactive

**Q:** Field: outcome | Entry: "Cc1ccc(C(=O)Nc2cccc(C(F)(F)F)c2)cc1-c1ccc2nc(NCCN3CCOCC3)ncc2c1"
**A:** Yes

**Q:** Field: outcome | Entry: "Cc1[nH]c2ccccc2c1CCNCc1ccc(C=CC(=O)NO)cc1"
**A:** Yes

**Q:** Field: outcome | Entry: "O=C(Nc1ncc(-c2cc(C(F)F)nn2-c2c(Cl)cccc2Cl)s1)C1CC1"
**A:** Yes

Continuing:
**Q:** Field: outcome | Entry: "Cc1cn(-c2cc(NC(=O)c3ccc(C)c(Nc4nccc(-c5cccnc5)n4)c3)cc(C(F)(F)F)c2)cn1"
**A:** Yes

**Q:** Field: outcome | Entry: "CCOc1cc2ncc(C#N)c(Nc3ccc(F)c(Cl)c3)c2cc1NC(=O)C=CCN(C)C"
**A:** No

====

Assay: qHTS profiling for inhibitors of Plasmodium falciparum (DD2) proliferation (AID 743323)
Settings: lower = more inhibition; at 28.7 µM (top of the series)
Protocol: Plasmodium falciparum is a virulent malarial parasite that kills 1-2 million people worldwide each year. […] Because mature erythrocytes lack DNA, only Plasmodium-derived DNA is detected. The SYBR Green viability assay was adapted from a method described previously (Plouffe et al., 2008). […] The following morning, fluorescence intensity at 485(14) nm excitation and 535(25) nm emission wavelengths was measured on an EnVision (Perkin Elmer) plate reader. […]
Test Readout: activity, percent of control (%)
Answer with a number only, understood to be in %.

activity, percent of control for "Cn1cc(-c2[nH]c3cc(NC(=O)[C@H](N)C4CCCCC4)cc4c3c2C=NNC4=O)cn1" is -0.309

activity, percent of control for "CC(C)=CCCC(C)=CCCC(C)=CCSc1ccccc1C(=O)O" is 118

activity, percent of control for "CC(C)(C)OC(=O)Nc1ccc(-c2cc(C(=O)NCCCCCCC(=O)NO)no2)cc1" is -0.213

====

Recorded Potency, one value per entry.
Assay: qHTS of pediatric cancer cell lines to identify multiple opportunities for drug repurposing: Primary screen for DAOY cells (AID 1347090); note: potency is the fitted concentration of half-maximal effect; nearly all actives have a fitted effect of over 55% in size
Settings: DAOY medulloblastoma viability, CellTiter-Glo luminescence, 48 h; series mostly up to 46 µM
Protocol: Drug repurposing or repositioning has been offered as a strategy for drug development in oncology programs. […] [1] Shen, M et al. Quantitative high-throughput phenotypic screening of pediatric cancer cell lines identifies multiple opportunities for drug repurposing. […] Cells were assayed in growth media at a density of 500-1,000 cells/well. […] After a 15 min incubation at room temperature, samples were analyzed for luminescence intensity using a ViewLux High-throughput CCD imager equipped with clear filters.
Results filed as inconclusive are left out. Activity calls are given as the source filed them. Calls follow the shape of the dose curve; as a rule, active = well fitted cell-killing curve with a large enough effect; inconclusive = small, poorly fitted or top-dose-only effect; inactive = flat fitted curve, though single readings scatter.

Known Potency results, listed for orientation:
Potency for "CCn1nnc2c(N3CCOCC3)nc(-c3ccc(NC(=O)Nc4ccc(C(=O)N5CCN(C)CC5)cc4)cc3)nc21" is 0.235 µM (active)

Potency for COc1ccc(C(=O)CC2(O)C(=O)Nc3c(Cl)ccc(Cl)c32)cc1 (stereo not given) is 3.72 µM (active)

Potency for "O=C(c1ccc(Nc2nccc(-c3cc4ccccc4s3)n2)cc1)N1CCC(N2CCCC2)CC1" is 23.5 µM (active)

Continuing:
Potency for "Nc1cc(C(F)(F)F)c(-c2cc(N3CCOCC3)nc(N3CCOCC3)n2)cn1" is 0.372 µM (active)

Potency for "CC1(C)OC2=C(C(=O)c3ccccc3C2=O)[C@H](NCc2ccccc2)[C@H]1O" is 5.9 µM (active)
